Molecular target: GDP-bound KRAS wild-type protein (Homo sapiens)
Sequence (P01116 whole entry): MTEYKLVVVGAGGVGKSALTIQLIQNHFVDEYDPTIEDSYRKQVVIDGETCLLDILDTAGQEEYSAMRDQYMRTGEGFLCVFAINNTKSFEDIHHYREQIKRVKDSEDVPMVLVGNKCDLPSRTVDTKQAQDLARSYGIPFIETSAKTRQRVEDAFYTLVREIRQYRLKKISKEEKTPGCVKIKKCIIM
Test: Binding to KRAS by surface plasmon resonance (SPR), Single Cycle Kinetics
Details: SPR, Single Cycle Kinetics, 1:1 binding model; GDP-bound KRAS wild-type protein; read-out: KRAS KD
assay-metric: pKd
# pKd is unitless: minus log10 of the molar concentration; print number only

Answered cases to consult:
CCO[C@@H]1C[C@H]2C(=O)NC3(CCC3)C(=O)N(C)[C@@H](C3CCCC3)C(=O)N(C)[C@H](C(=O)N3CCOCC3)CC(=O)N(C)[C@@H](CC3CCCC3)C(=O)N[C@@H]([C@@H](C)CC)C(=O)N(C)CC(=O)N(C)[C@H]3C/C=C\CCN(C3=O)[C@@H](Cc3ccc(C)cc3)C(=O)N(C)CC(=O)N[C@@H](CCc3cc(F)c(C(F)(F)F)c(F)c3)C(=O)N2C1 [PP1394] | 9.62
CC[C@H](C)[C@@H]1NC(=O)[C@H](CC2CC2)N(C)C(=O)C[C@@H](C(=O)N(C)C)N(C)C(=O)[C@H](C2CCCC2)N(C)C(=O)C2(CCCC2)NC(=O)[C@@H]2CC(F)(F)CN2C(=O)[C@H](CCc2cc(F)c(C(F)(F)F)c(F)c2)NC(=O)CN(C)C(=O)[C@H](Cc2ccc(C(F)(F)F)cc2)N2CC/C=C\C[C@@H](C2=O)N(C)C(=O)CN(C)C1=O [PP1513] | 10.15

**Q:** Record request: pKd value, item CCO[C@@H]1C[C@H]2C(=O)NC3(CCCC3)C(=O)N(C)[C@@H](C3CCCC3)C(=O)N(C)[C@H](C(=O)N(C)C)CC(=O)N(C)[C@@H](C)C(=O)N[C@@H]([C@@H](C)CC)C(=O)N(C)CC(=O)N(C)[C@H]3C/C=C\CCN(C3=O)[C@@H](CC3CCC(F)(F)CC3)C(=O)N(C)CC(=O)N[C@@H](CCc3cc(F)c(C(F)(F)F)c(F)c3)C(=O)N2C1 [PP1456]
**A:** 9.92

**Q:** Record request: pKd value, item CCO[C@@H]1C[C@H]2C(=O)NC3(CCC3)C(=O)N(C)[C@@H](C3CCCC3)C(=O)N(C)[C@H](C(C)C)CC(=O)N(C)[C@@H](CC)C(=O)N[C@@H]([C@@H](C)CC)C(=O)N(C)CC(=O)N(C)[C@H]3C/C=C\CCN(C3=O)[C@@H](CC3CCCCC3)C(=O)N(C)CC(=O)N[C@@H](CCc3cc(F)c(C(F)(F)F)c(F)c3)C(=O)N2C1 [PP1601]
**A:** 8.68

**Q:** Record request: pKd value, item CCO[C@@H]1C[C@H]2C(=O)NC3(CCC3)C(=O)N(C)[C@@H](C(CC)CC)C(=O)N(C)[C@H](C(=O)N(C)C)CC(=O)N(C)[C@@H](CC(C)C)C(=O)N[C@@H]([C@@H](C)CC)C(=O)N(C)CC(=O)N(C)[C@H]3C/C=C\CCN(C3=O)[C@@H](Cc3ccc(F)cc3)C(=O)N(C)CC(=O)N[C@@H](CCc3cc(F)c(C(F)(F)F)c(F)c3)C(=O)N2C1 [PP1519]
**A:** 9.39

**Q:** Record request: pKd value, item CCO[C@@H]1C[C@H]2C(=O)NC3(CCC3)C(=O)N(C)[C@@H](C3CCCC3)C(=O)N(C)[C@H](C(=O)N(C)CCOC)CC(=O)N(C)[C@@H](CC(C)C)C(=O)N[C@@H]([C@@H](C)CC)C(=O)N(C)CC(=O)N(C)[C@H]3C/C=C\CCN(C3=O)[C@@H](Cc3ccc(C(F)(F)F)cc3)C(=O)N(C)CC(=O)N[C@@H](CCc3cc(F)c(C(F)(F)F)c(F)c3)C(=O)N2C1 [PP1317]
**A:** 10.03
